Examples of compounds with documented pA2 follow.
# target under test: Angiotensin II receptor (Oryctolagus cuniculus)
# experimental details: Antagonism of angiotensin-II mediated contraction of rabbit aortic rings expressed as pA2 (in vitro)

Determine from records and report pA2 for CCCCc1nn(CC(OC)c2ccccc2)c(=O)n1Cc1ccc(-c2ccccc2-c2nn[nH]n2)cc1 (centres undefined)
7.8

Determine from records and report pA2 for CCCCc1nn(CC(=O)OC(C)(C)C)c(=O)n1Cc1ccc(-c2ccccc2-c2nn[nH]n2)cc1
7.1

Determine from records and report pA2 for CCCCc1nn(CC(=O)c2cc(OC)ccc2OC)c(=O)n1Cc1ccc(-c2ccccc2-c2nn[nH]n2)cc1
8

Determine from records and report pA2 for CCCCc1nn(C(CC(=O)OCC)C(=O)c2ccccc2)c(=O)n1Cc1ccc(-c2ccccc2-c2nn[nH]n2)cc1 (centres undefined)
7.8

Determine from records and report pA2 for CCCCc1nn(CCCc2ccccc2)c(=O)n1Cc1ccc(-c2ccccc2-c2nn[nH]n2)cc1
8

Determine from records and report pA2 for CCCCc1nn(CC(OCC(=O)OCC)c2ccccc2)c(=O)n1Cc1ccc(-c2ccccc2-c2nn[nH]n2)cc1 (centres undefined)
8.3

Determine from records and report pA2 for CCCCc1nnc(O)n1Cc1ccc(-c2ccccc2-c2nn[nH]n2)cc1
7.1

Determine from records and report pA2 for CCCCc1nn(CCCC)c(=O)n1Cc1ccc(-c2ccccc2C(=O)O)cc1
7

Determine from records and report pA2 for CCCCc1nn(CC(O)c2ccccc2)c(=O)n1Cc1ccc(-c2ccccc2-c2nn[nH]n2)cc1 (centres undefined)
8.3
